Target: Grb2 SH2 (UniProt P62993)
Assay: SH2 binding enrichment of the phosphorylated peptide, bacterial display (enrichment ratio); higher = better substrate or ligand; peptides without Tyr show the background;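 further: peptide library displayed on the E. coli surface as eCPX fusions, selected cells deep-sequenced, score is each peptide's frequency after selection divided by its frequency in the input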
Measured metric: SH2 binding enrichment

Past entries and their recorded results:
| Input sequence | Target entity | SH2 binding enrichment |
| --- | --- | --- |
| CEAVEYLESKQ [BTK_Y511_M509V] | Grb2 SH2 (UniProt P62993) | 0.929 |
| RSSNTYTLMDV [ALCAM_Y298_T301M] | Grb2 SH2 (UniProt P62993) | 0.78 |
| DKATEYIQYVR [MAX_Y70_M74V] | Grb2 SH2 (UniProt P62993) | 0.94 |
| TVSTGYTQPQP [SARG_Y259_R258G] | Grb2 SH2 (UniProt P62993) | 0.633 |

A: QKDIFYGLRSL [IGSF10_Y126_T124I]
B: AIGCEYSEINI [SIGLEC12_Y588_Y586C]
C: CTTIHYNYRCN [TP53_Y234_M237R]
D: VNKLVYENING [FRS2_Y306]
Reorder: SH2 binding enrichment, max to min. Order the labels as requested and list them.
D, C, A, B
(D: 23.9, C: 1.5, A: 0.9, B: 0.603)
